experiment: Solubility screening in solvents (Example 2); format: physicochemical; conditions: organic solvent or mixture, thermodynamic from solid; DMSO/Ethanol (75/25 v/v); 12 h room temperature; read-out: Compound 1 Solubility
MEASUREMENT_KIND: solubility at 12 h

// query Quick one: solubility at 12 h of Cc1c(Cc2ccc3ccccc3n2)c2cc(F)ccc2n1CC(=O)O ?
// result 0.5 to 1 mg/mL

###

assay: Solubility in aqueous solutions (Example 10); format: physicochemical; details: pH 6.8 + 1% HTAB, pH 6.8, aqueous with cosolvent or surfactant or cyclodextrin, thermodynamic from solid, pH 6.8 + 1% HTAB; read-out: Compound 1 Solubility
Counter-ions that a name gives are not always drawn.
MEASUREMENT_KIND: solubility (µg/mL)
# output: bare number, implied unit µg/mL

// query Requested read-out: solubility. Entry: Cc1c(Cc2ccc3ccccc3n2)c2cc(F)ccc2n1CC(=O)O [Compound 1 sodium salt]
// result 4110

###

assay: Solubility screening in solvents (Example 2); assay type: physicochemical; conditions: aqueous with cosolvent or surfactant or cyclodextrin, thermodynamic from solid; Tween 80 (1% v/v); 12 h room temperature; read-out: Compound 1 Solubility
MEASUREMENT_KIND: solubility at 12 h

// query What does the record list as solubility at 12 h for Cc1c(Cc2ccc3ccccc3n2)c2cc(F)ccc2n1CC(=O)O ?
// result < 500 µg/mL

###

assay: Solubility screening in solvents (Example 2); format: physicochemical; settings: aqueous with cosolvent or surfactant or cyclodextrin, thermodynamic from solid; Span 80 (1% v/v); 12 h room temperature; read-out: Compound 1 Solubility
MEASUREMENT_KIND: solubility at 12 h

// query Dear colleague, I am looking for the recorded solubility at 12 h of the following molecule: Cc1c(Cc2ccc3ccccc3n2)c2cc(F)ccc2n1CC(=O)O [Compound 1]
// result < 500 µg/mL

###

experiment: Solubility screening in solvents (Example 2); assay type: physicochemical; conditions: aqueous with cosolvent or surfactant or cyclodextrin, thermodynamic from solid; Hexadecyltrimethylammonium (0.05% w/v); 12 h room temperature; read-out: Compound 1 Solubility
MEASUREMENT_KIND: solubility at 12 h

// query For Cc1c(Cc2ccc3ccccc3n2)c2cc(F)ccc2n1CC(=O)O [Compound 1] , what is its reported solubility at 12 h?
// result < 500 µg/mL

###

experiment: Solubility screening in solvents (Example 2); assay type: physicochemical; conditions: aqueous buffer, thermodynamic from solid; Sodium hydroxide 0.5N; at 45° C.; read-out: Compound 1 Solubility
MEASUREMENT_KIND: solubility

// query So what does the record say about solubility for Cc1c(Cc2ccc3ccccc3n2)c2cc(F)ccc2n1CC(=O)O ?
// result > 90 mg/mL

###

experiment: Solubility in aqueous solutions (Example 10); assay type: physicochemical; details: pH 6.8 + 1% Tween 80, pH 6.8, aqueous with cosolvent or surfactant or cyclodextrin, thermodynamic from solid, pH 6.8 + 1% Tween 80; read-out: Compound 1 Solubility
Structures can show the parent of a compound that is named as a salt.
MEASUREMENT_KIND: solubility

// query Look up solubility: Cc1c(Cc2ccc3ccccc3n2)c2cc(F)ccc2n1CC(=O)O [Compound 1 sodium salt]
// result 3220 µg/mL

###

assay: Solubility screening in solvents (Example 2); assay type: physicochemical; conditions: organic solvent or mixture, thermodynamic from solid; Carbon tetrachloride; 12 h room temperature; read-out: Compound 1 Solubility
MEASUREMENT_KIND: solubility at 12 h

// query Need solubility at 12 h, item Cc1c(Cc2ccc3ccccc3n2)c2cc(F)ccc2n1CC(=O)O
// result < 500 µg/mL
